Values were extracted from patent US10457637B2.

Below, each entry is listed alongside its reported pIC50.
Target: ROR gamma ligand-binding domain (hRORg) (Homo sapiens (Human), UniProt P51449)
Sequence (P51449 269-508): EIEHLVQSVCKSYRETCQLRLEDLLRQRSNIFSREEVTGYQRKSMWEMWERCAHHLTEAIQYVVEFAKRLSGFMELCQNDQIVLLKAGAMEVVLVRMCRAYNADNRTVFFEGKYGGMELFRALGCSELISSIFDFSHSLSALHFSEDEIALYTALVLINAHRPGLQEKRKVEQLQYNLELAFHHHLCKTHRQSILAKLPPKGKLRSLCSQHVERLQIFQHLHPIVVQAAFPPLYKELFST
Experiment: GAL4-RORγ transactivation (luciferase reporter, HG5LN HeLa line)
Details: 18 hours incubation
From the text: GAL4-RORγ Transactivation The RORγ transactivation model was developed from the line HG5LN, which is a HeLa line that stably expresses a luciferase reporter gene controlled by a pentamer of the GAL4 recognition domain of yeast and of a β-globin promoter. […] Molecules that inhibit the ROR gamma constitutive activity reduce the luciferase expression, thus leading to a reduction in the emitted luminescence. […]
pIC50: −log10 of the molar value.

- Compound: "CCc1ccc(N(CC(C)C)S(=O)(=O)c2ccc(NCc3nn[nH]n3)c(S(C)(=N)=O)c2)cc1 (stereo not drawn) [compound 118]"
  pIC50: "< 6.00"
- Compound: "CCc1ccc(N(CC(C)C)S(=O)(=O)c2ccc(N3CCC4(CC3)COC4)c(S(C)(=N)=O)c2)cc1 (stereo not drawn) [compound 114]"
  pIC50: "6.00 to 7.00"
- Compound: "CCc1ccc(N(CC(C)C)S(=O)(=O)c2ccc3c(c2)NCCS3)cc1 [compound 9]"
  pIC50: "< 6.00"
- Compound: "CCc1ccc(N(CC(C)C)S(=O)(=O)c2ccc(OCC3CCOCC3)c([S+]([O-])CC)c2)cc1 (stereo not drawn) [compound 22]"
  pIC50: "6.00 to 7.00"
- Compound: "CCc1ccc(N(CC(C)C)S(=O)(=O)c2ccc(N3CC(O)C3)c(S(C)(=N)=O)c2)cc1 (stereo not drawn) [compound 131]"
  pIC50: "< 6.00"
- Compound: "CCc1ccc(N(CC(C)C)S(=O)(=O)c2ccc(N3CCNCC3)c(S(C)(=N)=O)c2)cc1 (stereo not drawn) [compound 140]"
  pIC50: "< 6.00"

**Q:** Report pIC50 for CCc1ccc(N(CC(C)C)S(=O)(=O)c2ccc(N3CCOCC3)c(S(C)(=N)=O)c2)cc1 (stereo not drawn) [compound 123] please.
**A:** > 7.00

**Q:** Same lookup for CCc1ccc(N(CC(C)C)S(=O)(=O)c2ccc(N3C[C@H]4C[C@@H]3CO4)c(S(C)(=N)=O)c2)cc1 (stereo partly drawn) [compound 115] , please.
**A:** 6.00 to 7.00

**Q:** Entry to check: CCc1ccc(N(CC(C)C)S(=O)(=O)c2ccc(N3CC[C@H](O)C3)c(S(C)(=N)=O)c2)cc1 (stereo partly drawn) [compound 129]
**A:** < 6.00

**Q:** What would you report for CCc1ccc(N(CC(C)C)S(=O)(=O)c2ccc(NCC3CNC(=O)C3)c(S(C)(=N)=O)c2)cc1 (stereo not drawn) [compound 59] ?
**A:** 6.00 to 7.00

**Q:** Also CCc1ccc(N(CC(C)C)S(=O)(=O)c2ccc(NC[C@@H]3[C@H]4COC[C@@H]34)c(S(C)(=N)=O)c2)cc1 (stereo partly drawn) [compound 91] ?
**A:** > 7.00

**Q:** Try this compound too: CCc1ccc(N(CC(C)C)S(=O)(=O)c2ccc(OCC3CCN(C(C)=O)CC3)c(S(C)(=N)=O)c2)cc1 (stereo not drawn) [compound 50]
**A:** < 6.00

**Q:** // query: CCc1ccc(N(CC(C)C)S(=O)(=O)c2ccc(OC[C@H]3CNC(=O)O3)c(S(C)(=N)=O)c2)cc1 (stereo partly drawn) [compound 79]
**A:** < 6.00

**Q:** Thanks! And CCc1ccc(N(CC(C)C)S(=O)(=O)c2ccc([S+]([O-])CC3CCOCC3)c(C(=O)OC)c2)cc1 (stereo not drawn) [compound 16] ?
**A:** < 6.00

**Q:** Now consider CCc1ccc(N(CC(C)C)S(=O)(=O)c2ccc(OCC3(F)COC3)c(S(C)(=N)=O)c2)cc1 (stereo not drawn) [compound 32] and answer again.
**A:** < 6.00
